Each recorded value in this set is attributed to patent US20250382344A1.

Please provide measured EC50, CreLuc reporter, 0.5% hP for the entries that follow.
# assay.target: T1, human neuropeptide Y2 receptor (human, UniProt P49146 1-381)
# T1 sequence (looked up): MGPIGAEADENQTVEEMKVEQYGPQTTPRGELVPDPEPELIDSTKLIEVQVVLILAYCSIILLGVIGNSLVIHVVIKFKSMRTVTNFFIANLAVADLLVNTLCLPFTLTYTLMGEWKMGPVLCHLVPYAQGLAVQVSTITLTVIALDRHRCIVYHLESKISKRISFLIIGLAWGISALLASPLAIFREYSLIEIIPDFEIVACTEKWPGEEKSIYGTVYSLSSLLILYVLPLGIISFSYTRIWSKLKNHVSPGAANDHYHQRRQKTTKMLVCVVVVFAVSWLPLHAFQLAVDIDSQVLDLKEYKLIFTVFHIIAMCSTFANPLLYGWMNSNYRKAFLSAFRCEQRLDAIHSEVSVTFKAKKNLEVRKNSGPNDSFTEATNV
# procedure.summary: cell-based or functional assay
Entry rule: numbers only, all in nM.

Could you please provide reported EC50, CreLuc reporter, 0.5% hP for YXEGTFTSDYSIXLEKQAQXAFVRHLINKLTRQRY (Aib at 2, 13, 20; Lys29 epsilon-amino: C18DA-gGlu-gGlu-gGlu-gGlu-gGlu; C-terminal amide) [Compound 158] ? Thanks!
26

Give me measured EC50, CreLuc reporter, 0.5% hP, please, for this binder: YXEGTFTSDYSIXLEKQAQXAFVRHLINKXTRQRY (Aib at 2, 13, 20, 30; Lys29 epsilon-amino: C20DA-gGlu-gGlu-gGlu-gGlu-gGlu-AHX-AHX; C-terminal amide) [Compound 106]
7.1

Tell me measured EC50, CreLuc reporter, 0.5% hP for YXEGTFTSDYAIXLEKQAQXAFVRHLINKXTRQRY (Aib at 2, 13, 20, 30; Lys29 epsilon-amino: C18DA-gGlu-gGlu-gGlu-gGlu-gGlu-gGlu-eLys; C-terminal amide) [Compound 142] please.
17.4
